Source listed as patent US20110237606A1.

Tested on: HCT115 ER-E2F1 cells
Experiment: E2F1-induced apoptosis assay (ER-E2F1 activated by 4-OHT), FACS subG1
Type: cell-based
Details: with 4-OHT (value in parentheses)
Where a name gives a salt, the structure may show the parent alone.
Give E2F1 Induced apoptosis (+4-OHT) % Apoptosis for every item shown.
Numbers only, in %.

Sample records with E2F1 Induced apoptosis (+4-OHT) % Apoptosis:
Nc1ncnc2c1ncn2[C@@H]1CC[C@@H](O)[C@H]1O (racemic) [Compound 32, hydrochloride] :: 44
Nc1ncnc2c1ncn2[C@@H]1C=C(COC(=O)c2ccccc2)[C@@H](O)[C@H]1O [Compound 27, hydrochloride] :: 30
CC1=C[C@@H](n2cnc3c(N)ncnc32)[C@H](O)[C@@H]1O [Compound 26, hydrochloride] :: 40
CC1(C)O[C@@H]2[C@H](O1)C(CO)=C[C@H]2n1cnc2c(N)nccc21 [Compound 23] :: 25
Cl.Nc1nccc2c1ncn2[C@@H]1C[C@H](CO)[C@@H](O)[C@H]1O [Compound 24, 3-Deazaaristeromycin hydrochloride] :: 60
Nc1nccc2c1ncn2[C@@H]1C=C(CO)[C@@H](O)[C@H]1O [Compound 22, 3-Deazaneplanocin A, reference compound] :: 65

q: Tell me measured E2F1 Induced apoptosis (+4-OHT) % Apoptosis for COCC1=C[C@@H](n2cnc3c(N)ncnc32)[C@H](O)[C@@H]1O [Compound 25, hydrochloride] please.
a: 60
